# assay.system: Human Nav1.2 (Homo sapiens, UniProt Q99250)
# Construct: expressed in transfected cells
# Sequence (Q99250 whole entry): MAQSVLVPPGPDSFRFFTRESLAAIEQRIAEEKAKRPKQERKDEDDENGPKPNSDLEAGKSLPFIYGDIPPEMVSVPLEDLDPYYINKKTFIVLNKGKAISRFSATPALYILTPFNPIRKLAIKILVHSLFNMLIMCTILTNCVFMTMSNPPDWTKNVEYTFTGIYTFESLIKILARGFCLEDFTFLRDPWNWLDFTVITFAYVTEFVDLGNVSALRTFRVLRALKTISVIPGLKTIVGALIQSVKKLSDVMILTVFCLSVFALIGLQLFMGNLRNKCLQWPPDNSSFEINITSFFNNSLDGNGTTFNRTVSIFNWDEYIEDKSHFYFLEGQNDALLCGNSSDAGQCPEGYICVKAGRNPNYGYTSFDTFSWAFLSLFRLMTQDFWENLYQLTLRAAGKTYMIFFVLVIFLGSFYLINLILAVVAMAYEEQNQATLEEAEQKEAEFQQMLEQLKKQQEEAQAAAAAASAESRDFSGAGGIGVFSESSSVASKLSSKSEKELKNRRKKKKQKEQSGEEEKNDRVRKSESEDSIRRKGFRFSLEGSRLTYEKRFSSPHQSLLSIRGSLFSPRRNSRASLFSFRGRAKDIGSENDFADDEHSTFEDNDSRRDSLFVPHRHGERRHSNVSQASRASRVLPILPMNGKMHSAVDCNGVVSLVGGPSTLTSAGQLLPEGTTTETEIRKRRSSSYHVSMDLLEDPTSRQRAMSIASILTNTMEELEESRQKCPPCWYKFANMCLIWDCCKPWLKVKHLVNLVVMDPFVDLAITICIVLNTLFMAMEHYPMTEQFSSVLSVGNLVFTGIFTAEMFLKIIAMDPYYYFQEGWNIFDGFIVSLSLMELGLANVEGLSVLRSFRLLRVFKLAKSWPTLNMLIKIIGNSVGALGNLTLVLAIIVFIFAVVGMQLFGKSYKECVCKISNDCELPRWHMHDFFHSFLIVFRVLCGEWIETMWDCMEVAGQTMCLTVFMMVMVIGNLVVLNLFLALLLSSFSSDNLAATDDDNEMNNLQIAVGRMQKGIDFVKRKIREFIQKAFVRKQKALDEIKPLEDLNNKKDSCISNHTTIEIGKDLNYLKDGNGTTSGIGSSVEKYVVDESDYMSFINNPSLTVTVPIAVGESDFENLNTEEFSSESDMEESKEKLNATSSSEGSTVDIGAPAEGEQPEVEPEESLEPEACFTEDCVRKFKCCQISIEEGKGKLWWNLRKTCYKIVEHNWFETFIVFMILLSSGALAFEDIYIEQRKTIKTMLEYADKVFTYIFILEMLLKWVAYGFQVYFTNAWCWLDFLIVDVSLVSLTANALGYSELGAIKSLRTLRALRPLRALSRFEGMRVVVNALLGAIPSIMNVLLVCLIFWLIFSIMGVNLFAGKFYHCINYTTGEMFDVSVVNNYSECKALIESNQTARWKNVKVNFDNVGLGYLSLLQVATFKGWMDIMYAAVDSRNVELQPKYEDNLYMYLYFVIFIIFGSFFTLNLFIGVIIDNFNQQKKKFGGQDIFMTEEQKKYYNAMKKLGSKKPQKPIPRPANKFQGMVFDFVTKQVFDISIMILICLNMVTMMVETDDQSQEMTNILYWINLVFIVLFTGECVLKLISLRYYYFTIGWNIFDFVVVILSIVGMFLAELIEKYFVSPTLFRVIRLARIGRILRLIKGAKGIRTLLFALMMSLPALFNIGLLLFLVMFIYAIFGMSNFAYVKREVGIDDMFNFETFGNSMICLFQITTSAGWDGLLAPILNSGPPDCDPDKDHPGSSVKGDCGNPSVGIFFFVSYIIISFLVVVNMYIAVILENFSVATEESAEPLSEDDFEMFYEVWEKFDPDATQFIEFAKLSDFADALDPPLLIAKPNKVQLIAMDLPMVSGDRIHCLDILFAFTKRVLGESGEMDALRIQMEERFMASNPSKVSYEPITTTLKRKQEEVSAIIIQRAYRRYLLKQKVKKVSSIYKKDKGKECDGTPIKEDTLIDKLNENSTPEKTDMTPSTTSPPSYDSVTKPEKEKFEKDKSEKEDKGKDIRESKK
# assay.overview: Nav1.2 use-dependent block, whole-cell voltage clamp
# Type: cell-based
# details: use-dependent block 10 Hz, read-out: NAv1.2*-CHAN TEST-UDB-10 HZ-
I'd appreciate it if you could supply inhibition at 1 µM values for the items below.
Give bare numbers, in %.

Field: example entries. Status: answers known.
O=C(c1ncccn1)N1CCc2ccc(-c3ccc(C(F)(F)F)cc3)cc2C1 [IX-7] ... 8.62
Cc1ncc(Cn2nnc3ccc(-c4ccc(OC(F)(F)F)cc4)cc3c2=O)o1 [II-95] ... -8.2
O=c1c2cc(-c3ccc(OC(F)(F)F)cc3)ccc2nnn1CCOc1ncccn1 [II-32] ... 16.9
O=c1c2cc(-c3ccc(OC(F)(F)F)cc3)ccc2nnn1C1CCNCC1 [II-38] ... 8
Cn1cnc(C(=O)N2CCc3ccc(-c4ccc(C(F)(F)F)cc4)cc3C2)c1 [IX-39] ... 16.8
N#Cc1ccnc(OCCn2nnc3ccc(-c4ccc(OC(F)(F)F)cc4)cc3c2=O)n1 [II-36] ... 10.9

Please give inhibition at 1 µM, item by item, for the list that follows.
1. Cc1noc(Cn2ncc3ccc(-c4ccc(OC(F)(F)F)cc4)cc3c2=O)n1 [III-2]
2. O=c1c2cc(-c3ccc(OC(F)(F)F)cc3)ccc2cnn1CCOc1ncccn1 [III-28]
3. CC1Oc2ccc(-c3ccc(OC(F)(F)F)cc3)cc2C(=O)N1Cc1ncccn1 (stereo not drawn) [VIII-7]

[5, 28.8, 18.2]
